experiment: Inhibition of Gtf in Streptococcus mutans UA159 assessed as reduction in glucans level by Coomassie blue dye based SDS-PAGE analysis
measuredQuantity: IC50 (µM)
Could you give me the number in µM? Just the number is fine.

Fill blank: measured IC50 of the molecule NC(=O)c1ccccc1NC(=O)c1cc2cc([N+](=O)[O-])ccc2s1 is ____.
10

----------
test: Solubility of compound in water; type: physicochemical; details: water; read-out: solubility
Class T: solubility at least 20 µg/mL. Class F: solubility below 20 µg/mL.

Recorded results for 5 compounds are shown here.
1. CC(C)(C)OC(=O)NCc1ccccc1NC(=O)c1ccc(-c2ccccc2)cc1 ... F
2. COC(=O)c1cccc(NC(=O)c2ccc(-c3ccccc3)cc2)c1 ... F
3. O=C(Nc1ccccc1)c1cnc2ccccc2c1 ... F
4. CC(C)(C)OC(=O)NCc1ccccc1NC(=O)c1cc2cc([N+](=O)[O-])ccc2o1 ... T
5. NC(=O)c1cccc(NC(=O)c2cc3cc([N+](=O)[O-])ccc3s2)c1 ... T

Now, please, on to the next compound.
Hello, I need to know if NCc1ccccc1NC(=O)c1cc2cc([N+](=O)[O-])ccc2s1 has measured solubility not below 20 µg/mL. Thanks!
T
